- experimentDescription: Fraction unbound brain (fu,br), brain slice method
- measurementSetup: rat brain slices 300 µm, 1 µM, 5 h incubation
Field: fubrain (slice) Mean. Provide a value for each of the compounds that follow.
Keep it simple and answer with nothing but the number.

Reported fubrain (slice) Mean for CN1CCN(CCCN2c3ccccc3Sc3ccc(C(F)(F)F)cc32)CC1 was 0.0007

Quick note, fubrain (slice) Mean for NC(=O)N1c2ccccc2C=Cc2ccccc21 [Carbamazepine] landed at 0.2000

For reference, reported fubrain (slice) Mean for CC(NC(C)(C)C)C(=O)c1cccc(Cl)c1 (stereo not shown) stands at 0.1600

Notebook: CN(C)CCCN1c2ccccc2Sc2ccc(Cl)cc21 , fubrain (slice) Mean read as 0.0032

Value of fubrain (slice) Mean reported for the compound NCC1(CC(=O)O)CCCCC1 is 0.2400

Summary for this compound, NCC(CC(=O)O)c1ccc(Cl)cc1 (stereo not shown) : fubrain (slice) Mean is 0.5800

fubrain (slice) Mean measured on CN1CCN(C2=Nc3cc(Cl)ccc3Nc3ccccc32)CC1 = 0.0100

Just so you know, measured fubrain (slice) Mean for CNCCC(Oc1ccc(C(F)(F)F)cc1)c1ccccc1 (stereo not shown) came out at 0.0027

Field fubrain (slice) Mean (entry CCN1CCCC1CNC(=O)c1cc(S(N)(=O)=O)ccc1OC (stereo not shown) [Sulpiride] ) reads 0.4400

Input CNS(=O)(=O)Cc1ccc2[nH]cc(CCN(C)C)c2c1 . Output fubrain (slice) Mean: 0.6100

Quick note, fubrain (slice) Mean for O=C1NC(=O)C(c2ccccc2)(c2ccccc2)N1 landed at 0.1200

Data point: CCCC(C)(COC(N)=O)COC(=O)NC(C)C (stereo not shown) ; fubrain (slice) Mean = 0.5600

CSc1ccc2c(c1)N(CCC1CCCCN1C)c1ccccc1S2 (stereo not shown) has a reported fubrain (slice) Mean of 0.0017

Item: Nc1nnc(-c2cccc(Cl)c2Cl)c(N)n1 | fubrain (slice) Mean: 0.3600

Input O=C(CCCN1CCC(O)(c2ccc(Cl)cc2)CC1)c1ccc(F)cc1 . Output fubrain (slice) Mean: 0.0140

Briefly, fubrain (slice) Mean measured for CN(C)CCC=C1c2ccccc2CCc2ccccc21 : 0.0060

For Cn1c(=O)c2c(ncn2C)n(C)c1=O the compound record lists fubrain (slice) Mean as 0.7100

Looking up OCCOCCN1CCN(C(c2ccccc2)c2ccc(Cl)cc2)CC1 (stereo not shown) [Hydroxyzine] , I see its fubrain (slice) Mean listed as 0.0170

Documented fubrain (slice) Mean of CNCCC=C1c2ccccc2CCc2ccccc21 : 0.0045

---

- experimentDescription: Brain microdialysis, free brain and plasma concentration-time profiles
- Format: in vivo
- measurementSetup: male, Wistar, sc; rat, 30 µmol/kg s.c., at 240 min; read-out: Cu,br/Cu,pl in microdialysis
readoutName: Kp at 240 min
Give your answer as a number; write no unit.

According to the records, this compound CN1CCN(C2=Nc3cc(Cl)ccc3Nc3ccccc32)CC1 [Clozapine] displays Kp at 240 min of 1.71

---

- experimentDescription: Fraction unbound brain (fu,br), brain homogenate equilibrium dialysis
- measurementSetup: brain homogenate (10%), 1 µM, equilibrium dialysis 18 hrs at 37°C
- Experimental: The degree of brain binding was assessed by equilibrium dialysis. Brain homogenate (10%) was spiked with test compound at 1 µM in triplicate. […] The plate was then placed in a shaker/incubator to equilibrate for 18 hrs at 37°C. […] After the addition of 50 µl of buffer to the brain homogenate samples, 150 µl of acetonitrile was added to each sample. Finally, 50 µl of water was added to all buffer and brain homogenate samples. The plates were centrifuged and the supernatant analyzed by LC-MS/MS.
For each entry below, report its fubrain (homog.) Mean value.

CNCCC=C1c2ccccc2CCc2ccccc21 [Nortriptyline] has a reported fubrain (homog.) Mean of 0.0046

Measured fubrain (homog.) Mean, CCCC(C)(COC(N)=O)COC(=O)NC(C)C (stereo not shown) [Carisoprodol] : 0.2020

Short answer for OCCOCCN1CCN(C(c2ccccc2)c2ccc(Cl)cc2)CC1 (stereo not shown) [Hydroxyzine] : fubrain (homog.) Mean was 0.0100

The measured fubrain (homog.) Mean associated with CN(C)CCCN1c2ccccc2Sc2ccc(Cl)cc21 [Chlorpromazine] reads 0.0008

Value of measured fubrain (homog.) Mean for the entry NCC1(CC(=O)O)CCCCC1 [Gabapentin] : 0.7820

Record CCN1CCCC1CNC(=O)c1cc(S(N)(=O)=O)ccc1OC (stereo not shown) [Sulpiride] . Reported fubrain (homog.) Mean: 0.6000

Entry under test: CN(C)CCC=C1c2ccccc2CCc2ccccc21 [Amitriptyline] . Its fubrain (homog.) Mean was 0.0090

According to the records, this molecule Cn1c(=O)c2c(ncn2C)n(C)c1=O [Caffeine] displays fubrain (homog.) Mean of 0.5000

The reported value for Nc1nnc(-c2cccc(Cl)c2Cl)c(N)n1 [Lamotrigine] in terms of fubrain (homog.) Mean is 0.2000

The value of fubrain (homog.) Mean measured for the molecule CN1CCN(CCCN2c3ccccc3Sc3ccc(C(F)(F)F)cc32)CC1 [Trifluoperazine] turned out to be 0.0007

// fubrain (homog.) Mean lookup, molecule = CNCCC(Oc1ccc(C(F)(F)F)cc1)c1ccccc1 (stereo not shown) [Fluoxetine] , result: 0.0023

Kindly note the recorded fubrain (homog.) Mean for NCC(CC(=O)O)c1ccc(Cl)cc1 (stereo not shown) [Baclofen] , which is 0.5000

molecule CNS(=O)(=O)Cc1ccc2[nH]cc(CCN(C)C)c2c1 [Sumatriptan] , fubrain (homog.) Mean observed: 0.4000

fubrain (homog.) Mean in this record for O=C1NC(=O)C(c2ccccc2)(c2ccccc2)N1 [Phenytoin] : 0.0800

Per the record, NC(=O)N1c2ccccc2C=Cc2ccccc21 [Carbamazepine] has fubrain (homog.) Mean of 0.1160

The value of fubrain (homog.) Mean measured for the molecule CN1CCN(C2=Nc3cc(Cl)ccc3Nc3ccccc32)CC1 [Clozapine] turned out to be 0.0094

For record O=C(CCCN1CCC(O)(c2ccc(Cl)cc2)CC1)c1ccc(F)cc1 [Haloperidol] the listed fubrain (homog.) Mean is 0.0071

Memo: CC(NC(C)(C)C)C(=O)c1cccc(Cl)c1 (stereo not shown) [Buproprion] , reported fubrain (homog.) Mean: 0.1710

# molecule CSc1ccc2c(c1)N(CCC1CCCCN1C)c1ccccc1S2 (stereo not shown) [Thioridazine] ; its fubrain (homog.) Mean = 0.0010

---

- Test system: in vitro BBB model (co-culture of bovine brain capillary endothelial cells and rat glial cells)
- experimentDescription: In vitro BBB co-culture model, Cu,br/Cu,pl ratio
- measurementSetup: 2 µM in luminal compartment; abluminal/luminal concentration at 1 h
readoutName: In vitro Cu,br/Cu,pl Mean 1 h
Format: numeric value only, no unit, no commentary.

Given item NCC(CC(=O)O)c1ccc(Cl)cc1 (stereo not shown) , the value recorded as its In vitro Cu,br/Cu,pl Mean 1 h is 0.05

Query CNS(=O)(=O)Cc1ccc2[nH]cc(CCN(C)C)c2c1 yields In vitro Cu,br/Cu,pl Mean 1 h of 0.05

The recorded In vitro Cu,br/Cu,pl Mean 1 h for CC(NC(C)(C)C)C(=O)c1cccc(Cl)c1 (stereo not shown) is 0.24

// recorded In vitro Cu,br/Cu,pl Mean 1 h for CSc1ccc2c(c1)N(CCC1CCCCN1C)c1ccccc1S2 (stereo not shown) : 0.08

Item: CN(C)CCCN1c2ccccc2Sc2ccc(Cl)cc21 | In vitro Cu,br/Cu,pl Mean 1 h: 0.06

Reported In vitro Cu,br/Cu,pl Mean 1 h ( CN(C)CCC=C1c2ccccc2CCc2ccccc21 ) = 0.07

Given item Cc1ccc(-c2nc3ccc(C)cn3c2CC(=O)N(C)C)cc1 , the value recorded as its In vitro Cu,br/Cu,pl Mean 1 h is 0.25

Summary for this molecule, CN1CCN(CCCN2c3ccccc3Sc3ccc(C(F)(F)F)cc32)CC1 : In vitro Cu,br/Cu,pl Mean 1 h is 0.09

Looking up NCC1(CC(=O)O)CCCCC1 , I see its In vitro Cu,br/Cu,pl Mean 1 h listed as 0.06

Form: molecule = Cn1c(=O)c2c(ncn2C)n(C)c1=O ; In vitro Cu,br/Cu,pl Mean 1 h = 0.34

Record summary for CN1CCN(C2=Nc3cc(Cl)ccc3Nc3ccccc32)CC1 : reported In vitro Cu,br/Cu,pl Mean 1 h = 0.10

Short answer for CC(C)(C)NC(=O)[C@@H]1CN(Cc2cccnc2)CCN1C[C@@H](O)C[C@@H](Cc1ccccc1)C(=O)N[C@H]1c2ccccc2C[C@H]1O : In vitro Cu,br/Cu,pl Mean 1 h was 0.04

Entry OCCOCCN1CCN(C(c2ccccc2)c2ccc(Cl)cc2)CC1 (stereo not shown) [Hydroxyzine] — recorded In vitro Cu,br/Cu,pl Mean 1 h = 0.05

# molecule CNCCC=C1c2ccccc2CCc2ccccc21 ; its In vitro Cu,br/Cu,pl Mean 1 h = 0.08

// CCCC(C)(COC(N)=O)COC(=O)NC(C)C (stereo not shown) : In vitro Cu,br/Cu,pl Mean 1 h value = 0.31

Record CCN1CCCC1CNC(=O)c1cc(S(N)(=O)=O)ccc1OC (stereo not shown) [Sulpiride] , field In vitro Cu,br/Cu,pl Mean 1 h: 0.05

Lab note: measured In vitro Cu,br/Cu,pl Mean 1 h of Nc1nnc(-c2cccc(Cl)c2Cl)c(N)n1 was 0.27

Quick note, In vitro Cu,br/Cu,pl Mean 1 h for O=C1NC(=O)C(c2ccccc2)(c2ccccc2)N1 landed at 0.22

So for O=C(CCCN1CCC(O)(c2ccc(Cl)cc2)CC1)c1ccc(F)cc1 , the logged In vitro Cu,br/Cu,pl Mean 1 h turned out to be 0.09

// In vitro Cu,br/Cu,pl Mean 1 h value for NC(=O)N1c2ccccc2C=Cc2ccccc21 [Carbamazepine] : 0.25

The measured In vitro Cu,br/Cu,pl Mean 1 h associated with Fc1ccc([C@@H]2CCNC[C@H]2COc2ccc3c(c2)OCO3)cc1 reads 0.08

Item: CNCCC(Oc1ccc(C(F)(F)F)cc1)c1ccccc1 (stereo not shown) | In vitro Cu,br/Cu,pl Mean 1 h: 0.10
